Assay: NOVARTIS: Cytotoxicity against human hepatocellular carcinoma cell line (Huh7)
Format: toxicity, cell-based, Huh-7
Conditions: Huh7 cells (hepatocellular carcinoma cell line)
For each of the compounds below, state its CC50.

Below, 5 compounds whose answers are already recorded.
What value of CC50 has been reported for the following compound? COc1ccc(-n2c(SCC(=O)Nc3cc(Cl)ccc3OC)nnc2-c2ccccc2)cc1 > 11.5 µM

Record request: CC50 value, item Oc1ccc(Nc2nc(NCc3ccco3)c3ccccc3n2)cc1 19.7 µM

// returns reported CC50 for input O=C1C(=Cc2ccccc2)Oc2c1ccc(O)c2CN1CCCCC1 > 100 µM

Which measured CC50 value corresponds to COCCOC(=O)C1=C(C)NC2=C(C(=O)CC(c3ccc(OC)cc3)C2)C1c1ccc(F)cc1 (stereo not drawn) ? > 100 µM

GET /values?readout=CC50&item= CCOc1cccc2oc(=O)c(C(=O)Nc3cc(C(C)(C)C)on3)cc12 > 100 µM

Each compound below has a recorded value; state its CC50.
1. O=C(CC(=NNc1nc(NN=C(CC(=O)C(F)(F)F)C(F)(F)F)nc(N(c2ccccc2)c2ccccc2)n1)C(F)(F)F)C(F)(F)F
2. Fc1ccccc1Nc1nc(NCC2CCCO2)c2ccccc2n1 (stereo not drawn)
3. C=CCn1c2cc(C)sc2c2cnn(CC(=O)N3CC(C)CC(C)C3)c(=O)c21 (stereo not drawn)
4. O=C1CSc2nc3ccccc3n21
5. CSc1nnc(-c2cccc([N+](=O)[O-])c2)n1Cc1ccccc1
6. CN1C=CC(=Cc2sc3ccccc3[n+]2C)C=C1
7. Cc1ccc(-n2c(SCc3cccc(C)c3)nnc2C(Cc2ccccc2)NC(=O)NC(C)(C)C)cc1 (stereo not drawn)
8. COc1ccc(NC(=O)c2cnn(-c3ccccc3)c2NC(=O)c2ccco2)cc1

["> 10 µM", "34.2 µM", "> 10 µM", "> 100 µM", "> 100 µM", "> 100 µM", "> 10 µM", "> 100 µM"]

Quick request: CC50 for each listed item, please.
1. Fc1ccc(Nc2nc(NCc3ccco3)c3ccccc3n2)cc1
2. C=CCc1cc(-c2cc(CC=C)c(O)c(CN(CC)CC)c2)cc(CN(CC)CC)c1O
3. COc1ccc(NC(=O)CCCCCn2c(SCC(=O)NCCc3ccc(OC)c(OC)c3)nc3ccsc3c2=O)cc1
4. Cc1cc(Oc2ncnc(N(C)CC(=O)OC(C)(C)C)c2[N+](=O)[O-])c2nncn2n1
5. Cc1ccc(-n2cc(C(=O)N(C)Cc3ccccc3)c3ccccc3c2=O)cc1C
6. Cc1ccc(N2C(=O)C3C(C2=O)C2(c4ccccc4)C(=O)C3(c3ccccc3)C(c3ccccc3)=C2c2ccccc2)cc1[N+](=O)[O-] (stereo not drawn)
7. CCCCCCCC(O)(c1ccc(OCC)cc1)C(CN1CCCCC1)c1ccccc1 (stereo not drawn)
8. Cc1nc(CC(=O)N2CCCC(CNC(=O)C3(c4ccc(Cl)cc4)CC3)C2)cs1 (stereo not drawn)

1: 12.3 µM; 2: > 10 µM; 3: > 100 µM; 4: > 10 µM; 5: > 100 µM; 6: > 100 µM; 7: > 100 µM; 8: > 100 µM

List CC50 for every entry below, keeping the order given.
1. C=CCOc1ccccc1CN1CCN(c2ccccn2)CC1
2. O=C1C(=O)N(Cc2ccccc2[N+](=O)[O-])c2ccccc21

> 98.5 µM
> 100 µM
